PROTOCOL_SUMMARY: Solubility in aqueous media at 37° C.
Assay type: physicochemical
CONDITION_NOTES: aqueous buffer, thermodynamic from solid, pH 3.0 citrate buffer (50 mM)
MEASURED_ENDPOINT: solubility at 24 h (µg/mL)

>>> result_number("Cc1nc(-c2c[nH]c3c(C#N)cccc23)cnc1OCC(C)(C)O [Form C]")
4.08

====

PROTOCOL_SUMMARY: Solubility in aqueous media at 37° C.
Assay type: physicochemical
CONDITION_NOTES: simulated gastric fluid, thermodynamic from solid, pH 1.0 HCl solution (0.1N)
MEASURED_ENDPOINT: solubility at 24 h (µg/mL)

>>> result_number("Cc1nc(-c2c[nH]c3c(C#N)cccc23)cnc1OCC(C)(C)O [Form C]")
14.6

====

PROTOCOL_SUMMARY: Solubility in solvents and mixture solvents
Assay type: physicochemical
CONDITION_NOTES: acetone/n-heptane 1/2 (v/v), organic solvent or mixture, thermodynamic from solid; Acetone/n-hep = 1/2 (v/v), 25 ° C.; read-out: Solubility
MEASURED_ENDPOINT: Solubility (µg/mL)

>>> result_number("Cc1nc(-c2c[nH]c3c(C#N)cccc23)cnc1OCC(C)(C)O [Form C]")
10000

====

PROTOCOL_SUMMARY: Solubility in solvents and mixture solvents
Type: physicochemical
CONDITION_NOTES: 2-MeTHF/n-heptane 4/8 (v/v), organic solvent or mixture, thermodynamic from solid; 2-ME-THF/n-hep = 4/8 (v/v), 50 ° C.; read-out: Solubility
MEASURED_ENDPOINT: Solubility (µg/mL)

>>> result_number("Cc1nc(-c2c[nH]c3c(C#N)cccc23)cnc1OCC(C)(C)O [Form C]")
10000

====

PROTOCOL_SUMMARY: Solubility in solvents and mixture solvents
Format: physicochemical
CONDITION_NOTES: 2-MeTHF/n-heptane 1/1 (v/v), organic solvent or mixture, thermodynamic from solid; 2-ME-THF/n-hep = 1/1 (v/v), 25 ° C.; read-out: Solubility
MEASURED_ENDPOINT: Solubility (mg/mL)

>>> result_number("Cc1nc(-c2c[nH]c3c(C#N)cccc23)cnc1OCC(C)(C)O [Form C]")
13

====

PROTOCOL_SUMMARY: Solubility in solvents and mixture solvents
Assay type: physicochemical
CONDITION_NOTES: MEK/n-heptane 1/3 (v/v), organic solvent or mixture, thermodynamic from solid; MEK/n-hep = 1/3 (v/v), 25 ° C.; read-out: Solubility
MEASURED_ENDPOINT: Solubility

>>> result("Cc1nc(-c2c[nH]c3c(C#N)cccc23)cnc1OCC(C)(C)O [Form C]")
"~3000 µg/mL"

====

PROTOCOL_SUMMARY: Solubility in solvents and mixture solvents
Type: physicochemical
CONDITION_NOTES: 2-MeTHF/n-heptane 1/3 (v/v), organic solvent or mixture, thermodynamic from solid; 2-ME-THF/n-hep = 1/3 (v/v), 25 ° C.; read-out: Solubility
MEASURED_ENDPOINT: Solubility

>>> result("Cc1nc(-c2c[nH]c3c(C#N)cccc23)cnc1OCC(C)(C)O [Form C]")
"~2000 µg/mL"

====

PROTOCOL_SUMMARY: Solubility in solvents and mixture solvents
Assay type: physicochemical
CONDITION_NOTES: acetone/n-heptane 1/3 (v/v), organic solvent or mixture, thermodynamic from solid; Acetone/n-hep = 1/3 (v/v), 25 ° C.; read-out: Solubility
MEASURED_ENDPOINT: Solubility (µg/mL)

>>> result_number("Cc1nc(-c2c[nH]c3c(C#N)cccc23)cnc1OCC(C)(C)O [Form C]")
5000

====

PROTOCOL_SUMMARY: Solubility in solvents and mixture solvents
Assay type: physicochemical
CONDITION_NOTES: acetone/n-heptane 1/1 (v/v), organic solvent or mixture, thermodynamic from solid; Acetone/n-hep = 1/1 (v/v), 25 ° C.; read-out: Solubility
MEASURED_ENDPOINT: Solubility (mg/mL)

>>> result_number("Cc1nc(-c2c[nH]c3c(C#N)cccc23)cnc1OCC(C)(C)O [Form C]")
18

====

PROTOCOL_SUMMARY: Solubility in solvents and mixture solvents
Type: physicochemical
CONDITION_NOTES: Water, 25° C.; read-out: Solubility
MEASURED_ENDPOINT: Solubility

>>> result("Cc1nc(-c2c[nH]c3c(C#N)cccc23)cnc1OCC(C)(C)O [Form C]")
"~1000 µg/mL"

====

PROTOCOL_SUMMARY: Solubility in solvents and mixture solvents
Assay type: physicochemical
CONDITION_NOTES: organic solvent or mixture, thermodynamic from solid; Acetone/MCH = 1/2 (v/v), 25 ° C.; read-out: Solubility
MEASURED_ENDPOINT: Solubility (mg/mL)

>>> result_number("Cc1nc(-c2c[nH]c3c(C#N)cccc23)cnc1OCC(C)(C)O [Form C]")
15

====

PROTOCOL_SUMMARY: Solubility in solvents and mixture solvents
Type: physicochemical
CONDITION_NOTES: MEK/n-heptane 1/2 (v/v), organic solvent or mixture, thermodynamic from solid; MEK/n-hep = 1/2 (v/v), 25 ° C.; read-out: Solubility
MEASURED_ENDPOINT: Solubility (µg/mL)

>>> result_number("Cc1nc(-c2c[nH]c3c(C#N)cccc23)cnc1OCC(C)(C)O [Form C]")
6000

====

PROTOCOL_SUMMARY: Solubility in solvents and mixture solvents
Type: physicochemical
CONDITION_NOTES: organic solvent or mixture, thermodynamic from solid; 2-MeTHF/MCH = 1/2 (v/v), 25 ° C.; read-out: Solubility
MEASURED_ENDPOINT: Solubility (µg/mL)

>>> result_number("Cc1nc(-c2c[nH]c3c(C#N)cccc23)cnc1OCC(C)(C)O [Form C]")
6000

====

PROTOCOL_SUMMARY: Solubility in aqueous media at 37° C.
Type: physicochemical
CONDITION_NOTES: aqueous buffer, thermodynamic from solid, pH 7.0 phosphate buffer (50 mM)
MEASURED_ENDPOINT: solubility at 24 h (µg/mL)

>>> result_number("Cc1nc(-c2c[nH]c3c(C#N)cccc23)cnc1OCC(C)(C)O [Form C]")
11.6

====

PROTOCOL_SUMMARY: Solubility in solvents and mixture solvents
Assay type: physicochemical
CONDITION_NOTES: organic solvent or mixture, thermodynamic from solid; MEK/MCH = 1/1 (v/v), 25 ° C.; read-out: Solubility
MEASURED_ENDPOINT: Solubility (mg/mL)

>>> result_number("Cc1nc(-c2c[nH]c3c(C#N)cccc23)cnc1OCC(C)(C)O [Form C]")
20

====

PROTOCOL_SUMMARY: Solubility in solvents and mixture solvents
Format: physicochemical
CONDITION_NOTES: 2-MeTHF/n-heptane 4/2 (v/v), organic solvent or mixture, thermodynamic from solid; 2-ME-THF/n-hep = 4/2 (v/v), 50 ° C.; read-out: Solubility
MEASURED_ENDPOINT: Solubility

>>> result("Cc1nc(-c2c[nH]c3c(C#N)cccc23)cnc1OCC(C)(C)O [Form C]")
"49 mg/mL"

====

PROTOCOL_SUMMARY: Solubility in solvents and mixture solvents
Assay type: physicochemical
CONDITION_NOTES: MEK/n-heptane 1/1 (v/v), organic solvent or mixture, thermodynamic from solid; MEK/n-hep = 1/1 (v/v), 25 ° C.; read-out: Solubility
MEASURED_ENDPOINT: Solubility (mg/mL)

>>> result_number("Cc1nc(-c2c[nH]c3c(C#N)cccc23)cnc1OCC(C)(C)O [Form C]")
16

Each recorded value in this set is attributed to patent US12168650B2.
